Would you mind telling me the reported Percent Effect of each entry?
- Test system: Trypanosoma brucei
- protocolNotes: Trypanosoma brucei 72 hour study
- Format: functional, organism-based
- Parameters: scale not given: in the data most compounds retested in dose-response had high values
- experimentalParameters: 30.3 µM; […]
About 960 (1.5%) of roughly 66,000 compounds showed an effect of 50% or more. Many of the other results were omitted from the sample, so strong results are more common in it than they were.
The response must be a number in % with no trailing unit.

Query: Please report the measured Percent Effect for COc1ccc(C[C@H]2CN(C(=O)CN(C)C)CC[C@H]2OC)cc1.O=C(O)C(F)(F)F
Result: 4.427

Query: Tell me its Percent Effect given CN1CCOCC12CCN(Cc1ccoc1)CC2.O=C(O)C(F)(F)F.O=C(O)C(F)(F)F as the entry.
Result: -44.43

Query: Check the records and state Percent Effect for O=C(Nc1ccccc1)c1ccc2c(c1)C1(CCCCC1)CN2.O=C(O)C(F)(F)F
Result: 97.07

Query: Input CC(C)N1CC[C@H]2[C@H](C[C@@H](Cn3cncn3)N2c2nccs2)C1.O=C(O)C(F)(F)F.O=C(O)C(F)(F)F , output reported Percent Effect.
Result: -43.04

Query: Identify measured Percent Effect corresponding to COCCn1cc(NC(=O)NCC(C)N2CCOCC2)cn1 (stereo not drawn)
Result: -22.83

Query: Look up and report measured Percent Effect for this entry: CC(C)CC(=O)N1C[C@@H]2CCN(c3cnccn3)C[C@@H]2C1.O=C(O)C(F)(F)F
Result: -10.22

Query: Find the measured Percent Effect of Cc1ccc(S(=O)(=O)NC(=O)c2cc(S(C)(=O)=O)ccc2C)s1 and report it.
Result: 94.94

Query: Report Percent Effect for Cc1nc(CN2CC[C@@H]3O[C@@H](C(=O)N4CCOCC4)C[C@@H]32)cs1.O=C(O)C(F)(F)F
Result: -22.53

Query: Consider the molecule COc1ccccc1CN1C[C@@H]2CN(C(C)=O)CCO[C@@H]2C1.O=C(O)C(F)(F)F and give its recorded Percent Effect.
Result: -77.53

Query: Give the value of Percent Effect reported for the following: CCc1nccn1CCNC1CCN(c2nc3ccc(Cl)cc3s2)CC1
Result: 100.4

Query: In one line, give reported Percent Effect of the entry Cl.c1cnc(Nc2cncc(C3CCCN3)n2)cn1 (stereo not drawn) .
Result: 99.3

Query: Fill in reported Percent Effect for this entry: Cc1ccc(S(C)(=O)=O)cc1C(=O)NS(=O)(=O)c1cccs1
Result: -1.699

Query: Determine its reported Percent Effect: O=C(c1cc2cc(I)ccc2[nH]1)N1CCC(Nc2cccnn2)CC1
Result: 85.16

Query: Write down Percent Effect measured for item Cn1cccc1C(=O)N1CCC2(CC1)CC(N1CCOCC1)C2.O=C(O)C(F)(F)F
Result: -54.57

Query: Indicate its recorded Percent Effect; the molecule in question is CC(C)c1nn(C)c(N(C)C)c1CNCCC(=O)NC1CCCCC1
Result: -9.322

Query: Give the value of Percent Effect reported for the following: Clc1ccc2nc(N3CCC(NCCCC4CCOC4)CC3)sc2c1 (stereo not drawn)
Result: 69.37

Query: Annotate the molecule Fc1ccc(Oc2ccc(CNCC3CNc4ccnn4C3)cn2)cc1 (stereo not drawn) with its measured Percent Effect.
Result: 22.41

Query: Input Cc1cnc(N2CCc3cc(C(=O)O)c(N(C)C)nc3CC2)nc1.O=C(O)C(F)(F)F , output reported Percent Effect.
Result: -16.6

Query: Indicate its recorded Percent Effect; the molecule in question is O=C(O)C(F)(F)F.O=C1N(Cc2cccc(F)c2)CCC12CCN(c1ccccn1)CC2
Result: -2.034

Query: Write down Percent Effect measured for item CCC(CN1CCCC1)n1cncc1-c1cnn(-c2ccccc2)c1.Cl (stereo not drawn)
Result: -6.567

Query: Indicate its recorded Percent Effect; the molecule in question is CN(C)c1ncc2c(O)nc(C3CCNCC3)cc2n1.Cl
Result: -29.5

Query: Respond only with Percent Effect recorded for CC[C@@H]1N(Cc2ccc(OC)cc2)CCC[C@]12CCC(=O)N2CCOC.O=C(O)C(F)(F)F
Result: -46.04

Query: Identify measured Percent Effect associated with Cc1nc(CN2CCCC3(CCN(c4cnn(C)c4)C3=O)C2)cs1.O=C(O)C(F)(F)F (stereo not drawn)
Result: -9.884

Query: Give reported Percent Effect value for Cc1nc(Nc2cnccn2)cc(C2CCCN2)n1.Cl (stereo not drawn)
Result: -13.8

Query: // fetch Percent Effect given entry CC(=O)Nc1ccc(CCC2(NC(=O)C3CC3)CCCCC2)cn1
Result: 1.37

Query: // fetch Percent Effect given entry O=C(O)C(F)(F)F.O=C([C@H]1CCCO1)N1CCCC2(COCCN(c3ccccc3)C2)C1 (stereo partly drawn)
Result: -14.49

Query: Complete the entry with Percent Effect for O=C(O)C(F)(F)F.O=C1CC2(CNCCN(C(=O)Nc3ccccc3)C2)CN1 (stereo not drawn)
Result: -24.96

Query: Output measured Percent Effect for this item: Cl.c1nnc(Nc2cncc(C3CCCN3)n2)s1 (stereo not drawn)
Result: -8.347

Query: For CCOc1ccc(CC(=O)N2CCN(c3nccn3CC)CC2)cc1.Cl , write its Percent Effect.
Result: 9.034

Query: Indicate its recorded Percent Effect; the molecule in question is Cc1nccc(CNC(=O)NCCOc2ccc(F)c(F)c2)n1
Result: 8.406

Query: Give reported Percent Effect value for c1cc(CNCC2CNc3ccnn3C2)cc(OC2CCCC2)n1 (stereo not drawn)
Result: 16.86

Query: Answer with the recorded Percent Effect for the molecule listed here: c1ccc(Oc2ccc(CNCC3CNc4ccnn4C3)cn2)cc1 (stereo not drawn)
Result: 59.34

Query: Supply recorded Percent Effect for COCCn1cc(NC(=O)NCC(c2cccc(F)c2)N(C)C)cn1 (stereo not drawn) here.
Result: 9.218

Query: Please look at this molecule and report its Percent Effect: O=C(c1cc2ccccc2[nH]1)N1CCC(Nc2cccnn2)CC1
Result: -25.8

Query: In one line, give reported Percent Effect of the entry C1CC(N2C[C@@H]3COC[C@]3(COCC3CCOCC3)C2)C1.O=C(O)C(F)(F)F .
Result: -71.78

Query: In one line, give reported Percent Effect of the entry CCNc1cc2c(nn1)CCN(C(=O)c1cc3ccccc3o1)C2 .
Result: 2.809

Query: Specify measured Percent Effect for Cc1cc2n(n1)CC(CNCc1ccc(Oc3ccccc3)nc1)CN2 (stereo not drawn) .
Result: 53.59

Query: Recall and state the measured Percent Effect for CCC(CC)C(CNC(=O)Nc1cnn(CCOC)c1)N(C)C (stereo not drawn) .
Result: 100.4

Query: Read off the recorded Percent Effect for Cc1nc(C2(O)CCCNCC2)sc1CCOc1ccc(F)c(F)c1.Cl (stereo not drawn)
Result: 101.7

Query: Supply Percent Effect value. Item: CCOc1ncccc1CNC(=O)NC(C)Cn1cccn1 (stereo not drawn)
Result: 0.8601

Query: For the molecule COc1ccc(CNCC2CNc3cc(C)nn3C2)cn1 (stereo not drawn) , give its reported Percent Effect.
Result: 11.94

Query: Output measured Percent Effect for this item: O=C(c1cc2cc(F)ccc2[nH]1)N1CCC(Nc2cccnn2)CC1
Result: -6.499

Query: Specify measured Percent Effect for CN(C)CCCN(Cc1ccco1)Cc1ccnn1C1CCCCO1.O=C(O)CC(O)(CC(=O)O)C(=O)O (stereo not drawn) .
Result: -21.72
